- tgt: CDK2/Cyclin E1 (Homo sapiens, UniProt P24941)
- assay.notes: CDK2/Cyclin E1 Caliper LabChip EZ Reader mobility shift assay
- Format: biochemical
- Design: purchased Eurofins 14-475
- test.parameters: read-out: Caliper Assay (CDK2/CCNE1): IC50
pIC50: −log10 of the molar value.
Catalogue of molecules with associated pIC50
readout.label: pIC50

* CNC(=O)[C@@H](NC(=O)[C@@H]1CN(C(=O)c2cnn(CC3CC3)c2)CC12CN(C(=O)CC1CC1)C2)[C@@H](C)OCc1ccccc1 [I-53A] | < 5.00
* C[C@@H](OCC12CCC(CC1)OC2)[C@H](NC(=O)[C@@H]1CN(C(=O)c2sc(Cl)nc2Cl)CC12CN(C(=O)C(C)(C)C1CC1)C2)C(C)(C)O [I-471] | 5.00 to 6.00
* CC1(C)C[C@@H]1C(=O)N1CC2(CN(C(=O)c3cnn(Cc4ccccc4)c3)C[C@H]2C(=O)N[C@H]2CCCN(CC3CCCCC3)C2)C1 [I-183] | < 5.00
* C[C@@H](OCC1CCCCC1)[C@H](NC(=O)[C@@H]1CN(C(=O)c2cnn(Cc3ccccc3)c2)CC12CN(C(=O)[C@H]1CC1(C)C)C2)C(C)(C)O [I-281] | ≥ 8.00
* CNC(=O)[C@@H](NC(=O)[C@@H]1CN(C(=O)c2cnn(Cc3ccccc3)c2)CC12CN(C(=O)CC(C)C)C2)[C@@H](C)OCc1ccccc1 [I-69A] | 6.00 to 7.00
* COC[C@H]1CCCN(C(=O)[C@@H](NC(=O)[C@@H]2CN(C(=O)c3cncs3)CC23CN(C(=O)[C@H]2CC2(C)C)C3)[C@@H](C)OCC2CCC3(CCC3)CC2)C1 [I-390] | ≥ 8.00

----------
- tgt: CDK2/Cyclin E1 (Homo sapiens)
- assay.notes: CDK2/Cyclin E1 Caliper LabChip EZ Reader mobility shift assay
- Type: biochemical
- Parameters: purchased Eurofins 14-475
- test.parameters: read-out: Caliper Assay (CDK2/CCNE1): IC50
- Experimental: Inhibition of CDK2/Cyclin E1 activity in the presence of compounds of the present disclosure was evaluated using a Caliper LabChip® EZ Reader mobility shift assay. […] The peptide substrate and product were measured, and the conversion ratio was used to determine the inhibition (as % activity and IC50 values) of CDK2/Cyclin E1. […]
readout.label: IC50

* CC1(C)C[C@@H]1C(=O)N1CC2(CN(C(=O)c3cnn(Cc4ccccc4)c3)C[C@H]2C(=O)NC2CCCN(C(=O)c3ccccc3)C2)C1 (some centres unmarked) [I-59A] | > 10 µM
* C[C@@H](OCC1CCCCC1)[C@@H](COC1CCOCC1)NC(=O)[C@@H]1CN(C(=O)c2cncs2)CC12CN(C(=O)[C@H]1CC1(C)C)C2 | ≤ 0.01 µM
* CC1(C)C[C@@H]1C(=O)N1CC2(CN(C(=O)c3cnn(Cc4ccccc4)c3)C[C@H]2C(=O)N2CC[C@H](OCC3CCCCC3)C2)C1 | 0.1 to 1 µM
* CC1(C)C[C@@H]1C(=O)N1CC2(CN(C(=O)c3cncs3)C[C@H]2C(=O)N[C@@H](COCC2CCCCC2)C(=O)N2CCCCC2)C1 | 0.01 to 0.1 µM
* C[C@@H](OCC1CCCCC1)[C@H](NC(=O)[C@@H]1CN(C(=O)c2cnn(Cc3ccccc3)c2)CC12CN(C(=O)[C@H]1CC1(C)C)C2)C(=O)N1CCC[C@@H]1CN | 0.01 to 0.1 µM
* CNC(=O)[C@@H](NC(=O)[C@@H]1CN(C(=O)c2cnn(Cc3ccccc3)c2)CC12CN(C(=O)NC1CC1)C2)[C@@H](C)OCC1CCCCC1 | > 10 µM
* CNC(=O)[C@@H](NC(=O)[C@H]1CN(C(=O)c2sc(C(C)C)nc2C)CC12CN(C(=O)[C@H]1CC1(C)C)C2)[C@@H](C)OCC1CCCCC1 [I-227B] | > 10 µM
* CC1(C)C[C@@H]1C(=O)N1CC2(CN(C(=O)c3cnn(Cc4ccccc4)c3)C[C@H]2C(=O)NC[C@H]2CC[C@@H](C)CC2)C1 | > 10 µM
* CNC(=O)[C@@H](NC(=O)[C@@H]1CN(C(=O)c2cnn(Cc3ccccc3)c2)CC12CN(C(=O)C1(c3ccc(C(C)(C)C)cc3)CC1)C2)[C@@H](C)OCc1ccccc1 [I-80A] | > 10 µM
* CNC(=O)[C@@H](NC(=O)[C@H]1CN(C(=O)c2cnn(Cc3ccccc3)c2)CC12CN(C(=O)C1(C(F)(F)F)CC1)C2)[C@@H](C)OCc1ccccc1 [I-108B] | > 10 µM
* CNC(=O)[C@@H](NC(=O)[C@@H]1CN(C(=O)c2ccccn2)CC12CN(C(=O)[C@H]1CC1(C)C)C2)[C@@H](C)OCc1ccccc1 [I-45A] | > 10 µM
* CNC(=O)[C@@H](NC(=O)[C@@H]1CN(C(=O)c2cnn(Cc3ccccc3)c2)CC12CN(C(=O)CC1CC1)C2)[C@@H](C)OCC1CCCCC1 [I-56A] | 0.1 to 1 µM
* CNC(=O)[C@@H](NC(=O)[C@@H]1CN(C(=O)c2cnn(Cc3ccccc3)c2)CC12CN(C(=O)[C@H]1CC1(C)C)C2)[C@@H](C)OCC1(C(F)(F)F)CC1 [I-205A] | 0.1 to 1 µM
* CNC(=O)[C@@H](NC(=O)[C@@H]1CN(C(=O)c2cnn(Cc3ccccc3)c2)CC12CN(C(=O)[C@H]1CC1(C)C)C2)[C@@H](C)OCc1ccncc1 | 1 to 10 µM
* CC1(C)C[C@@H]1C(=O)N1CC2(CN(C(=O)c3cnn(Cc4ccccc4)c3)C[C@H]2C(=O)NC2CCN(C(=O)c3ccccc3)CC2)C1 [I-61A] | 1 to 10 µM
* CNC(=O)[C@@H](NC(=O)[C@@H]1CN(C(=O)c2cnn(Cc3ccccc3)c2)CC12CN(C(=O)C1(C#N)CC1)C2)[C@@H](C)OCc1ccccc1 [I-73A] | 1 to 10 µM
* CNC(=O)[C@@H](NC(=O)[C@H]1CN(C(=O)c2cnn(Cc3ccccc3)c2)CC12CN(C(=O)OC(C)(C)C)C2)[C@@H](C)OCc1ccccc1 | > 10 µM
* CNC(=O)[C@@H](NC(=O)[C@@H]1CN(C(=O)c2cncs2)CC12CN(CC1CCOCC1)C2)[C@@H](C)OCC12CCC(CC1)OC2 | > 10 µM
* CC1(C)C[C@@H]1C(=O)N1CC2(CN(C(=O)c3cnn(Cc4ccccc4)c3)C[C@@H]2C(=O)N[C@H]2CCc3cc(Cl)ccc32)C1 [I-133B] | 1 to 10 µM
* Cc1ccc(CNC(=O)[C@H]2CN(C(=O)c3cnn(Cc4ccccc4)c3)CC23CN(C(=O)[C@H]2CC2(C)C)C3)nn1 | > 10 µM
* CCOC(=O)C(C)(C)CNC(=O)[C@@H](NC(=O)[C@@H]1CN(C(=O)c2cnn(Cc3ccccc3)c2)CC12CN(C(=O)[C@H]1CC1(C)C)C2)[C@@H](C)OCC1CCCCC1 | ≤ 0.01 µM
* C[C@@H](OCC1CCCCC1)[C@H](NC(=O)C1CN(C(=O)c2cnn(Cc3ccccc3)c2)CC12CN(C(=O)[C@H]1CC1(C)C)C2)C(=O)N1CCCCC1 (some centres unmarked) [I-194 mixture] | ≤ 0.01 µM
* C[C@@H](OCC1CCCCC1)[C@@H](CO)NC(=O)[C@H]1CN(C(=O)c2cnn(Cc3ccccc3)c2)CC12CN(C(=O)[C@H]1CC1(C)C)C2 [I-135B] | 0.1 to 1 µM

----------
Listed here: items and their measured pIC50.
- tgt: CDK2/Cyclin E1 (Homo sapiens)
- assay.notes: CDK2/Cyclin E1 Caliper LabChip EZ Reader mobility shift assay
- Type: biochemical
- Parameters: purchased Eurofins 14-475
- test.parameters: read-out: Caliper Assay (CDK2/CCNE1): IC50
pIC50: −log10 of the molar value.
readout.label: pIC50

* C[C@@H](OCC1CCOCC1)[C@H](NC(=O)[C@@H]1CN(C(=O)c2cn[nH]c2)CC12CN(C(=O)[C@H]1CC1(C)C)C2)C(=O)N1CCC(F)(F)CC1 [I-297] | 7.00 to 8.00
* CC1(C)C[C@@H]1C(=O)N1CC2(CN(C(=O)c3cnn(Cc4ccccc4)c3)C[C@@H]2C(=O)N[C@H]2C[C@@H]2c2cccc(Cl)c2)C1 [I-140B] | < 5.00
* CNC(=O)[C@H](CCCC1CCCCC1)NC(=O)[C@@H]1CN(C(=O)c2cnn(Cc3ccccc3)c2)CC12CN(C(=O)[C@H]1CC1(C)C)C2 [I-155A] | 6.00 to 7.00
* CNC(=O)[C@@H](NC(=O)[C@H]1CN(C(=O)c2scnc2Cl)CC12CN(C(=O)[C@H]1CC1(C)C)C2)[C@@H](C)OCC1CCCCC1 [I-157B] | 6.00 to 7.00
* C[C@@H](OCC1CCC(F)(F)CC1)[C@H](NC(=O)[C@@H]1CN(C(=O)c2cncs2)CC12CN(C(=O)[C@H]1CC1(C)C)C2)C(=O)N1CCC2(CC1)COC2 [I-335] | ≥ 8.00
* CC1(C)C[C@@H]1C(=O)N1CC2(CN(C(=O)c3cncs3)C[C@H]2C(=O)NC(c2cccc(C3CCCCC3)n2)C2CCOC2)C1 (stereo partly drawn) [I-493] | 7.00 to 8.00
* CNC(=O)[C@@H](NC(=O)[C@H]1CN(C(=O)c2cnn(Cc3ccccc3)c2)CC12CN(C(=O)CC(F)(F)F)C2)[C@@H](C)OCc1ccccc1 [I-87B] | < 5.00
* CC(O[C@H](C)[C@H](NC(=O)[C@@H]1CN(C(=O)c2cncs2)CC12CN(C(=O)[C@H]1CC1(C)C)C2)C(=O)N1CCCCC1)C1CCCCC1 (stereo partly drawn) [I-284] | 7.00 to 8.00
* CNC(=O)[C@@H](NC(=O)[C@H]1CN(C(=O)c2ccncc2)CC12CN(C(=O)[C@H]1CC1(C)C)C2)[C@@H](C)OCc1ccccc1 [I-46B] | < 5.00
* C[C@@H](OCC1CCCCC1)[C@H](NC(=O)[C@H]1CN(C(=O)c2cn[nH]c2)CC12CN(C(=O)[C@H]1CC1(C)C)C2)C(=O)N1CCC(F)(F)CC1 [I-154B] | 5.00 to 6.00
* Cc1nc(C)c(C(=O)N2C[C@@H](C(=O)NC(c3cccc(C4CCOCC4)n3)C(C)(C)O)C3(C2)CN(C(=O)[C@H]2CC2(C)C)C3)s1 (stereo partly drawn) [I-437] | < 5.00
* CNC(=O)[C@@H](NC(=O)[C@H]1CN(C(=O)c2cnn(Cc3ccccc3)c2)CC12CN(C(=O)C(C)(C)C)C2)[C@@H](C)OCC1CCCCC1 [I-174B] | 6.00 to 7.00

Source: patent US20240174680A1
